# System: HeLa
# Method description: Antiproliferative activity against human HeLa cells assessed as cell growth inhibition by MTT assay
# Assay type: functional, cell-based

Compound	System	IC50
C/C=C(/C)C(=O)OC[C@H]1C2=C(C[C@H]3[C@H]4C5=C(C[C@@H](C(=O)N13)N4C)C(=O)C(C)=C(OC)C5=O)C(=O)C(C)=C(OC)C2=O [(-)-RENIERAMYCIN G]	HeLa	3.8 µM

----------
# System: HL-60
# Method description: Cytotoxicity against human HL-60 cells assessed as cell growth inhibition
# Assay type: functional, cell-based
Measured quantity: IC50

Compound structure	Obs value
C/C=C(/C)C(=O)OC[C@H]1C2=C(C[C@H]3[C@H]4C5=C(C(=O)C(C)=C(OC)C5=O)[C@H](OCC)[C@@H]([C@H](CC(C)=O)N13)N4C)C(=O)C(C)=C(O)C2=O	> 100 µM
COC1=C(C)C(=O)C2=C(C1=O)[C@@H]1[C@@H]3CC4=C(C(=O)C(OC)=C(C)C4=O)[C@H](CO)N3[C@@H](CC(C)=O)[C@H](C2=O)N1C	2.5 µM
C/C=C(/C)C(=O)OC[C@H]1C2=C(C[C@H]3[C@H]4C5=C(C(=O)C(C)=C(OC)C5=O)[C@H](O)[C@@H]([C@H](CC(C)=O)N13)N4C)C(=O)C(C)=C(O)C2=O	> 100 µM
